Source: patent US20230381333A1

# Measurement target: human GLP-1 receptor (human, UniProt P43220 24-463)
# Experimental details: cell-based or functional assay
Bridge positions count the residues as written; N and C are the ends. Square brackets hold non-standard residues; d marks the D form. Ends that are not written are not given here. * marks the point of attachment. Acetyl(2-(4-imidazolyl)) = O=C(Cc1c[nH]cn1)*; Aib = CC(C)(N)C(=O)O
# label = condition met if In vitro activity compared to native-type peptide (%), vs GLP-1 >= 20% else condition not met

Worked examples, 4 binders total:
H[Aib]QGTFTSDKSKYLDECAAQDFVQWLLDGGPSSGAPPPS [triple agonist of SEQ ID NO: 41]; condition met
H[Aib]QGTFTSDVSKYLDGQAAKEFVAWLLKGC [triple agonist of SEQ ID NO: 7]; condition not met
Y[Aib]QGTFTSDYSKYLDECRAKEFVQWLLDHHPSSGQPPPS (bridge 16-20) [triple agonist of SEQ ID NO: 21]; condition not met
H[Aib]QGTFTSDVSSYLLGQQQKEFIAWLVKGC [triple agonist of SEQ ID NO: 4]; condition not met

Prompt: Decide: is the reported value of In vitro activity compared to native-type peptide (%), vs GLP-1 for {Acetyl(2-(4-imidazolyl))}-[Aib]EGTFTSDYSIAMDEIHQKDFVNWLLAQC (bridge 15-19) [triple agonist of SEQ ID NO: 83] equal to or greater than 20%?
Response: condition met

Prompt: Y[Aib]QGTFTSDYSKYLDEKRAKDFVQWLLDHHPSSGQPPPSC (bridge 16-20) [triple agonist of SEQ ID NO: 76] , same question.
Response: condition not met
